Measured values drawn from patent US20230398130A1 for this set.

System: ISC-enriched organoids
Assay: Primary screen, 384-well 2.5-D organoid differentiation (ENR+CD, 6 days, Target Selective Inhibitor Library, vs whole-plate median): ATP (CellTiter-Glo 3D, CTG)
Conditions: Dose 2.00 uM; primary screen, FC vs plate median
Decide by Dose.FC.CTG: equal to or exceeding 0.2 log 2 fold change means Met, less means Not met.

O=C(NCCN1CCOCC1)c1ccc(Cl)cc1 [Moclobemide (Ro 111163)] = Not met
CC1=C(C(=O)Nc2cc3cn[nH]c3cc2F)C(c2ccc(C(F)(F)F)cc2)CC(=O)N1 (centres unmarked) [GSK429286A] = Met
Cl.Cl.O=S(=O)(NCCNC/C=C/c1ccc(Br)cc1)c1cccc2cnccc12 [H 89 2HCl] = Met
Cn1cc(/C=C2\C(=O)Nc3cccnc32)c2ccccc21 [GW441756] = Not met
Nc1cccc2c1CN(C1CCC(=O)NC1=O)C2=O (centres unmarked) [Lenalidomide (CC-5013)] = Not met
Cc1c(C(=O)Nc2ccc(N3C[C@@H](C)O[C@@H](C)C3)nc2)cccc1-c1ccc(OC(F)(F)F)cc1 [LDE225 (NVP-LDE225, Erismodegib)] = Met
O=C1[C@H](Cc2ccc(O)cc2)N2C(=O)CCN(C(=O)NCc3ccccc3)[C@H]2CN1Cc1cccc2ccccc12 [ICG-001] = Not met
CC(C)(C)c1cc(C(C)(C)C)c(NC(=O)c2c[nH]c3ccccc3c2=O)cc1O [Ivacaftor (VX-770)] = Not met

###

This section presents molecules with their documented Dose.FC.LYZ.S values.
Tested on: ISC-enriched organoids
Test: Primary screen, 384-well 2.5-D organoid differentiation (ENR+CD, 6 days): carbachol-induced lysozyme secretion (LYZ.S)
Format: cell-based, murine
Details: primary screen, dose 10.00 uM, ENR+CD 6 days, FC vs plate median
From the text: High-throughput screening.
endpointName: Dose.FC.LYZ.S (log 2 fold change)

COc1ccc2c(c1)c(CC(=O)N1CCOCC1)c(C)n2C(=O)c1ccc(Cl)cc1 [BML-190] = 0.067
CC(C)N(CC[C@H](c1ccccc1)c1cc(CO)ccc1O)C(C)C [5-hydroxymethyl Tolterodine (PNU 200577, 5-HMT, 5-HM)] = −0.007
COc1cc2c(cc1O)CC[C@@H]1[C@@H]2CC[C@]2(C)[C@@H](O)CC[C@@H]12 [2-Methoxyestradiol (2-MeOE2)] = −0.278
CCNC(=O)c1noc(-c2cc(C(C)C)c(O)cc2O)c1-c1ccc(CN2CCOCC2)cc1 [AUY922 (NVP-AUY922)] = −0.214
CN1CCc2cc3c(cc2[C@H]1[C@@H]1OC(=O)c2c1ccc1c2OCO1)OCO3 [(+)-Bicuculline] = 0.072
COc1cc(CCc2cc(NC(=O)c3ccc(N4CC(C)NC(C)C4)cc3)n[nH]2)cc(OC)c1 (stereo not shown) [AZD4547] = −0.049
COc1cc(N2CCN(C)CC2)ccc1Nc1nccc(-c2cn(C)c3cnccc23)n1 [AZ191] = −0.200
Cc1cc([C@@H](C)Nc2ccccc2C(=O)O)c2nc(N3CCOCC3)cc(=O)n2c1 [AZD6482] = −0.253
C/C(=C\C(=O)Nc1ccccc1C(=O)O)c1ccc2ccccc2c1 [BIBR 1532] = −0.114
CC(C)N(CC[C@H](c1ccccc1)c1cc(CO)ccc1O)C(C)C [4CE°8C] = −0.129
CC(C)c1c(C(=O)Nc2ccccc2)c(-c2ccccc2)c(-c2ccc(F)cc2)n1CC[C@@H](O)C[C@@H](O)CC(=O)[O-].CC(C)c1c(C(=O)Nc2ccccc2)c(-c2ccccc2)c(-c2ccc(F)cc2)n1CC[C@@H](O)C[C@@H](O)CC(=O)[O-].[Ca+2] [Atorvastatin Calcium] = −0.305
CC(C)C[C@H](NC(=O)[C@H](Cc1ccccc1)NC(=O)c1cnccn1)B(O)O [Bortezomib (PS-341)] = −0.238
O=C(c1ccc(F)cc1)N1CCC[C@H](c2nc(-c3ccc(F)cc3)no2)C1 [ADX-47273] = −0.070

###

System: ISC-enriched organoids
Assay: Primary screen, 384-well 2.5-D organoid differentiation (ENR+CD, 6 days): carbachol-induced lysozyme secretion (LYZ.S)
Format: cell-based, murine
Conditions: Dose 0.40 uM; primary screen, FC vs plate median
From the text: High-throughput screening.
Could you please mark Criterion met for values of Dose.FC.LYZ.S below 0.06 log 2 fold change and Criterion not met for values at or above it?

CC(C)(C)c1cc(C(C)(C)C)c(NC(=O)c2c[nH]c3ccccc3c2=O)cc1O = Criterion not met
CC1=C(C(=O)Nc2cc3cn[nH]c3cc2F)C(c2ccc(C(F)(F)F)cc2)CC(=O)N1 (stereo not shown) [GSK429286A] = Criterion not met
COc1ccccc1S(=O)(=O)Nc1ccc2c(c1)CN(C)C(=O)N2 = Criterion not met
CN(c1ncccc1CNc1nc(Nc2ccc3c(c2)CC(=O)N3)ncc1C(F)(F)F)S(C)(=O)=O = Criterion met
CC(C)(C)Cn1c(N)nc2ccc(-c3[nH]c(C(C)(C)C)nc3-c3ccc(F)cc3)nc21 = Criterion met
CC(C)(F)C[C@H](N[C@@H](c1ccc(-c2ccc(S(C)(=O)=O)cc2)cc1)C(F)(F)F)C(=O)NC1(C#N)CC1 = Criterion not met
CCCC(C)NC(=O)c1ccc(Cl)c(Cl)c1 (stereo not shown) = Criterion not met
O=C(NNc1ccccc1)c1ccncc1 = Criterion met
COc1ccc(COc2ccc(Cc3cnc(N)nc3N)cc2OC)cc1 = Criterion met
Cn1cc(/C=C2\C(=O)Nc3cccnc32)c2ccccc21 = Criterion not met
CCOC(=O)CCNc1cc(N2CCc3ccccc3CC2)nc(-c2ccccn2)n1.Cl [GSK J4 HCl] = Criterion not met
COc1ccc(-c2cnc3c(-c4cccc5ncccc45)cnn3c2)cc1 = Criterion not met

###

Tested on: ISC-enriched organoids
Test: Primary screen, 384-well 2.5-D organoid differentiation (ENR+CD, 6 days, Target Selective Inhibitor Library, vs whole-plate median): ATP (CellTiter-Glo 3D, CTG)
Details: Dose 10.00 uM; primary screen, standard z score
Decide by Z.CTG: equal to or exceeding 0.2 means YES, less means NO.

O=c1cc(-c2cccc3c2Sc2ccccc2S3)oc(N2CCOCC2)c1 [KU-55933 (ATM Kinase Inhibitor)] = YES
C[C@H](NC(=O)[C@@H](O)c1cc(F)cc(F)c1)C(=O)N[C@@H]1C(=O)N(C)c2ccccc2-c2ccccc21 [LY411575] = NO
Cc1cc(SCc2sc(-c3ccc(C(F)(F)F)c(F)c3)nc2C)ccc1OCC(=O)O [GW0742] = NO
O=C(Nc1ccccc1)N1CCN(c2nc(-c3ccccc3)ns2)CC1 [JNJ-1661010] = NO
CC1=C(/C=C/C(C)=C/C=C/C(C)=C\C(=O)O)C(C)(C)CCC1 [Isotretinoin] = YES
C[C@@H]1CN(CC(=O)Nc2ccc3c(c2)Cc2cccc(-c4cc(=O)cc(N5CCOCC5)o4)c2S3)C[C@H](C)O1 [KU-60019] = NO
CC(C)c1onc(-c2c(Cl)cccc2Cl)c1COc1ccc(/C=C/c2cccc(C(=O)O)c2)c(Cl)c1 [GW4064] = NO
CC(C)CCNC(=O)[C@H](CC(C)C)NC(=O)[C@H]1O[C@@H]1C(=O)O [Loxistatin Acid (E-64C)] = YES

###

Tested on: ISC-enriched organoids
Test: Primary screen, 384-well 2.5-D organoid differentiation (ENR+CD, 6 days): basal lysozyme secretion (LYZ.NS)
Format: cell-based, murine
Settings: Dose 2.00 uM; ENR+CD, 6 days; FC vs plate median
Excerpt: High-throughput screening.
endpointName: Dose.FC.LYZ.NS (log 2 fold change)

Cc1ccc2c(=O)c3cccc(CC(=O)O)c3oc2c1C = −0.038
O=c1[nH]c2ccc(Cl)cc2c(N[C@@H]2CN3CCC2CC3)c1-c1nc2ccccc2[nH]1 = −0.220
CO[C@H]1C[C@@H]2CC[C@@H](C)[C@@](O)(O2)C(=O)C(=O)N2CCCC[C@H]2C(=O)O[C@H]([C@H](C)C[C@@H]2CC[C@@H](OCCO)[C@H](OC)C2)CC(=O)[C@H](C)/C=C(\C)[C@@H](O)[C@@H](OC)C(=O)[C@H](C)C[C@H](C)/C=C/C=C/C=C/1C [Everolimus (RAD001)] = −0.003
CC(C)(C)c1nc(-c2cccc(NS(=O)(=O)c3c(F)cccc3F)c2F)c(-c2ccnc(N)n2)s1 = −0.001
CNC(=O)c1cc(Oc2ccc(NC(=O)Nc3cc(C(C)(C)C)nn3-c3ccc4ncccc4c3)c(F)c2)ccn1 [DCC-2036 (Rebastinib)] = 0.073
COc1cc2c(cc1Cc1cccc(Cl)c1F)c(=O)c(C(=O)O)cn2[C@H](CO)C(C)C = −0.094
CN[C@@H](C)C(=O)N[C@H](C(=O)N1CCC[C@H]1C(=O)Nc1snnc1-c1ccccc1)C1CCCCC1 = 0.083
